- Test system: SW 962;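 further: growth inhibition of human SW962 cells, read out by a cell viability assay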
- procedure details: cells
- Format: functional, cell-based, Homo sapiens
- condition info: Homo sapiens, SW 962
- Description: SANGER: Inhibition of human SW962 cell growth in a cell viability assay.
Listed below: IC50 values for each entry.
measurement label: IC50

INSERT INTO assay_data (compound, measurement_label, readout_value) VALUES
  ('CNC(=O)c1cc(Oc2ccc(NC(=O)Nc3ccc(Cl)c(C(F)(F)F)c3)cc2)ccn1 [SORAFENIB]', 'IC50', '> 4 µM'),
  ('CC(=O)O[C@@]12CO[C@@H]1C[C@H](O)[C@@]1(C)C(=O)[C@H](O)C3=C(C)[C@@H](OC(=O)[C@H](O)[C@@H](NC(=O)OC(C)(C)C)c4ccccc4)C[C@@](O)([C@@H](OC(=O)c4ccccc4)[C@H]21)C3(C)C [DOCETAXEL]', 'IC50', '0.00293 µM'),
  ('Cc1cnc(-c2cnc(NCCNc3ccc(C#N)cn3)nc2-c2ccc(Cl)cc2Cl)[nH]1 [LADUVIGLUSIB]', 'IC50', '> 2.56 µM');
